The measured values listed here are drawn from ChEMBL document CHEMBL1201862.

Test system: HT-29
ASSAY_PROCEDURE: NCI tumour cell line growth inhibition, 48 h
Counter-ions that a name gives are not always drawn. Calls of active or inactive are those of the source. Rule as the data show it: active = GI50 up to about 1.1 µM and inactive = higher.

>  <MOLECULE>
NC(=O)CCC(NC(=O)Cc1ccccc1)C(=O)O (stereo not given)

>  <GI50>
> 2470 µM (inactive)

$$$$
>  <MOLECULE>
O=C(NN1C(=O)CS(=O)(=O)C1c1ccc(C(F)(F)F)cc1)c1ccncc1 (stereo not given)

>  <GI50>
> 100 µM (inactive)

$$$$
>  <MOLECULE>
NCCCNCCCCNCCCN [SPERMINE TETRAHYDROCHLORIDE]

>  <GI50>
15.6 µM (inactive)

$$$$
>  <MOLECULE>
CC1=C(C(=O)OCCc2ccc([N+](=O)[O-])cc2)C(c2ccccc2C(F)(F)F)C(C(=O)OC(C)C)=C(C)N1 (stereo not given)

>  <GI50>
10.1 µM (inactive)

$$$$
>  <MOLECULE>
C[N+](C)(C)/C=N\c1cccc2nsnc12

>  <GI50>
> 100 µM (inactive)

$$$$
>  <MOLECULE>
O=C1CC(c2cccc([N+](=O)[O-])c2)C2(C(=O)NC(=S)NC2=O)C(c2cccc([N+](=O)[O-])c2)C1 (stereo not given)

>  <GI50>
40.9 µM (inactive)

$$$$
>  <MOLECULE>
CC1C[C@H](OC(N)=O)C(C)CC1=O (stereo not given in full)

>  <GI50>
> 100 µM (inactive)

$$$$
>  <MOLECULE>
CN(C)C(CN)CC1=C(CC(CN)N(C)C)CCC1 (stereo not given)

>  <GI50>
> 100 µM (inactive)

$$$$
>  <MOLECULE>
C/C(CCc1ccccc1)=N\NC(N)=S

>  <GI50>
27.8 µM (inactive)

$$$$
>  <MOLECULE>
FC(F)(Sc1ccccn1)c1nc2ccccc2o1

>  <GI50>
> 100 µM (inactive)

$$$$
>  <MOLECULE>
O=[N+]([O-])c1ccc2c(c1)Sc1ccccc1N2CCCCCl

>  <GI50>
> 100 µM (inactive)

$$$$
>  <MOLECULE>
COC(=O)[C@@H]1[C@H]2CC[C@]3(C)[C@@H](OC(C)=O)CC[C@H]3[C@@H]2CC[C@H]1C(C)=O

>  <GI50>
> 100 µM (inactive)

$$$$
>  <MOLECULE>
[O-][S+](Nc1ccccc1)c1ccccc1Oc1ccccc1 (stereo not given)

>  <GI50>
60.5 µM (inactive)

$$$$
>  <MOLECULE>
CC[C@]12C=CCN3CC[C@@]4(c5cc(N=O)c(OC)cc5N(C)[C@H]4[C@@](O)(C(=O)NC(Cc4c[nH]c5ccccc45)C(=O)OC)[C@@H]1O)[C@@H]32 (stereo not given in full)

>  <GI50>
14.1 µM (inactive)

$$$$
>  <MOLECULE>
CN(C)c1ccc2c(SCC(=O)OCC(=O)[C@@]3(O)CC[C@H]4[C@@H]5CCC6=CC(=O)C=C[C@]6(C)[C@H]5C(=O)C[C@@]43C)c3ccc(N(C)C)cc3nc2c1

>  <GI50>
2.02 µM (inactive)

$$$$
>  <MOLECULE>
CCOC(=O)c1c(SC(=O)c2ccc(Cl)cc2)n(-c2ccccc2)c(=S)n(-c2ccccc2)c1=O

>  <GI50>
> 100 µM (inactive)

$$$$
>  <MOLECULE>
Cc1n[nH]c(=O)n1/N=C/c1ccc([N+](=O)[O-])cc1

>  <GI50>
> 100 µM (inactive)

$$$$
>  <MOLECULE>
CN1C(=O)NC(=O)/C(=C\Nc2ncccn2)C1=O

>  <GI50>
> 100 µM (inactive)

$$$$
>  <MOLECULE>
CC(C)(C)c1ccc2c(c1)C#Cc1cc(C(C)(C)C)ccc1OCCCO2

>  <GI50>
> 100 µM (inactive)

$$$$
>  <MOLECULE>
Nc1ccc(-c2nc3ccc(F)cc3s2)cc1I

>  <GI50>
56.1 µM (inactive)

$$$$
